tested on: Klebsiella aerogenes DSM 30053; assay: fold change of Histamine concentration vs plate DMSO controls (fold change (ratio)); higher = more amine produced, active = hit call of the paper (significant change in both replicates, either direction); conditions: incubation time: 27 h, anaerobic, 37 °C;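 for the amine columns active = adjusted P below 0.05 in both replicates with a change the same way and a mean fold change under 0.8 or over 1.25; inactive = the rest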
Where a name gives a salt, the structure may show the parent alone.
Outcome codes: true (1) (active), false (0) (inactive)

- Compound: "CCCCS(=O)(=O)N[C@@H](Cc1ccc(OCCCCC2CCNCC2)cc1)C(=O)O [Tirofiban hydrochloride] (20 µM)"
  Classification: "false (0)"
- Compound: "C=C1C[C@H]2[C@@H]3C=C(C)C4=CC(=O)CC[C@]4(C)[C@H]3CC[C@]2(C)[C@@]1(OC(C)=O)C(C)=O [Melengestrol acetate] (20 µM)"
  Classification: "false (0)"
- Compound: "Nc1ccc(S(=O)(=O)Nc2ccccn2)cc1 [Sulfapyridine] (20 µM)"
  Classification: "false (0)"
- Compound: "CC(=O)OCC(=O)[C@@]1(O)CC[C@H]2[C@@H]3CCC4=CC(=O)C=C[C@]4(C)[C@@]3(F)[C@@H](O)C[C@@]21C [Isoflupredone acetate] (20 µM)"
  Classification: "false (0)"
- Compound: "COc1c(N2CCNC(C)C2)c(F)cc2c(=O)c(C(=O)O)cn(C3CC3)c12 (stereo not given) [Gatifloxacin] (20 µM)"
  Classification: "true (1)"
- Compound: "CS(=O)(=O)c1ccc([C@@H](O)[C@@H](CF)NC(=O)C(Cl)Cl)cc1 [Florfenicol] (20 µM)"
  Classification: "true (1)"
- Compound: "CCCCCOC(=O)Nc1nc(=O)n([C@@H]2O[C@H](C)[C@@H](O)[C@H]2O)cc1F [Capecitabine] (20 µM)"
  Classification: "false (0)"
- Compound: "CCN(CC)CCc1nc(-c2ccccc2)no1 [Oxolamine citrate salt] (20 µM)"
  Classification: "false (0)"
- Compound: "CN(C)CCC(c1ccc(Br)cc1)c1ccccn1 (stereo not given) [Brompheniramine maleate] (20 µM)"
  Classification: "false (0)"
- Compound: "CC[N+]1(CC)CCC(=C(c2ccccc2)c2ccccc2)C1C (stereo not given) [Prifinium Bromide] (20 µM)"
  Classification: "false (0)"
- Compound: "Cc1cccc(CN2CCN(C(c3ccccc3)c3ccc(Cl)cc3)CC2)c1 (stereo not given) [Meclozine dihydrochloride] (20 µM)"
  Classification: "false (0)"
- Compound: "Cc1ncc([N+](=O)[O-])n1CC(O)CCl (stereo not given) [Ornidazole] (20 µM)"
  Classification: "false (0)"
- Compound: "CCOC(=O)OC(C)OC(=O)[C@@H]1N2C(=O)[C@@H](NC(=O)[C@H](N)c3ccccc3)[C@H]2SC1(C)C (stereo not given in full) [Bacampicillin hydrochloride] (20 µM)"
  Classification: "false (0)"
- Compound: "Nc1nc2[nH]cc(CCc3ccc(C(=O)N[C@@H](CCC(=O)O)C(=O)O)cc3)c2c(=O)[nH]1 [Pemetrexed disodium] (20 µM)"
  Classification: "false (0)"
- Compound: "Cc1cc2c(s1)Nc1ccccc1N=C2N1CCN(C)CC1 [Olanzapine] (20 µM)"
  Classification: "false (0)"

----------
test system: Ruminococcus gnavus DSM 108212; assay: fold change of 2-Phenylethylamine concentration vs plate DMSO controls (fold change (ratio)); higher = more amine produced, active = hit call of the paper (significant change in both replicates, either direction); conditions: incubation time: 27 h, anaerobic, 37 °C
Measurement name: fold change of 2-Phenylethylamine concentration

- Compound: "Nc1ncnc2c1ncn2[C@@H]1O[C@H](CO)[C@@H](O)[C@@H]1O [Vidarabine] (20 µM)"
  Reading: 0.976
- Compound: "Cn1c(=O)c2nc[nH]c2n(C)c1=O [Theophylline monohydrate] (20 µM)"
  Reading: 1.15
- Compound: "CCN(CC)CCNc1ccc(CO)c2sc3ccccc3c(=O)c12 [Hycanthone] (20 µM)"
  Reading: 0.917
- Compound: "CS(=O)(=O)OCCCCOS(C)(=O)=O [Busulfan] (20 µM)"
  Reading: 1.09
- Compound: "CC(C)(C)C(O)/C=C/c1ccc2c(c1)OCO2 (stereo not given) [Stiripentol] (20 µM)"
  Reading: 0.981
